These measurements were taken from paper PMC9911399.

- TEST_SYSTEM: T1, RBFOX1 RRM RbFoxmut (Fox-RRM*) (Homo sapiens, UniProt Q9NWB1 109-208, R118D;E147R;N151S;E152T)
- T1 sequence: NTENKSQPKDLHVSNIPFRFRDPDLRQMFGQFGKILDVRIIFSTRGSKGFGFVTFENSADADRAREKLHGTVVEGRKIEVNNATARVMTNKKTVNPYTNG
- TEST_DESCRIPTION: EMSA; HiTS-Eq, 1 nM pool, 10 min; buffer printed only for the single-RNA assays: 10 mM Tris pH 7.5, 150 mM NaCl, 3.4 mM EDTA, 0.001% NP-40, 30 C
- MEASUREMENT_CONDITIONS: tags: His6 N-terminal (pET28a); label: 5' 32P
In all, about 16,000 sequences were measured (“ka relative to ugcaugu”: median about 0.096, highest 2% from about 0.35 on). The sample as a whole holds a higher share of the highest values than the screen did.
ENDPOINT: binding signal

IN: Suppose we examine the binder GUGGAGA (DNA:RNA) RNA: GGGAGACCGGAAUUCAGAUUGUCCGUGGAGAUUAAAUCCCGUCGUAGCCACCA DNA 1: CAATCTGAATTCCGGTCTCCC DNA 2: TGGTGGCTACGACGGGATT ; what binding signal value has been reported?
OUT: 0.118 KA relative to UGCAUGU

IN: Thanks! And GCGUGGA (DNA:RNA) RNA: GGGAGACCGGAAUUCAGAUUGUCCGCGUGGAUUAAAUCCCGUCGUAGCCACCA DNA 1: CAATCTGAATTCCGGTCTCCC DNA 2: TGGTGGCTACGACGGGATT ?
OUT: 0.092 KA relative to UGCAUGU
